Reference for the values: PubChem BioAssay (NCI)

# Tested on: 786-0 renal
# PROCEDURE_TEXT: NCI-60 one-dose screen, 48 h (100 = growth as untreated, 0 = no growth, -100 = all killed)
# CONDITION_NOTES: 10 µM unless noted
The panel holds about 83,000 compounds, 20% with a hit somewhere; the sample as a whole holds those more often.
Kindly state growth for each of the entries shown.
Answers are plain numbers, in %.

Examples with answers:
COMPOUND	growth, %
CC(C)=CCC[C@](C)(O)C1CC[C@]2(C)[C@@H]1CC[C@@H]1[C@@]3(C)CC/C(=N\OCCC#N)C(C)(C)[C@@H]3CC[C@]12C (stereo partly specified)	86.2
CCOC(=O)C1=C(c2ccccc2)N=C2SC=C(c3cccc([N+](=O)[O-])c3)N2C1c1ccc(O)cc1 (stereo unspecified)	96.5
COc1cc(CNC(=O)CCCC/C=C/C(C)C)ccc1OCc1cn(-c2ccc(C(F)(F)F)cc2)nn1	2.94
Cn1ncc(CC(=O)O)c1-n1nnc2cc(Cl)ccc2c1=O	96.6
O=C(O)c1cc2ccccc2s1	106
Cc1ccccc1NC(=O)Cn1cc(CN2CCN(c3ccnc4cc(Cl)ccc34)CC2)nn1	104
O=C(Nc1ncc(Cc2cc(C(F)(F)F)ccc2Cl)s1)C(=S)N1CCOCC1	94.6
CNC(=O)c1cc(Oc2ccc3nc(NC(=O)NC(C)C)sc3c2)ccn1	80.3

Dear colleague, could you please provide growth for the compounds listed below?
1. C=C1CC[C@@H]2[C@](C)(COC(C)=O)[C@H](OC(C)=O)CC[C@@]2(C)[C@@H]1CC(Nc1ccc(S(=O)(=O)Nc2nccc(C)n2)cc1)C1=CCOC1=O (stereo partly specified)
2. O=c1c(Cc2ccc(F)cc2)cc(-c2ccccc2)nn1C/C(=N/O)c1ccccc1
3. O=CN1N=C(c2cccc(Nc3ccncc3)c2)CC1c1ccc2c(c1)OCO2 (stereo unspecified)
4. COc1cc(/C=C/C(=O)c2ccc(-n3cc(CN4CCN(c5cc6c(cc5F)c(=O)c(C(=O)O)cn6C5CC5)CC4)nn3)cc2)cc(OC)c1OC
5. COc1ccc(-c2nc3cc(C(=O)NC4CCCCC4)ccc3n2C2CCCCC2)cc1

## Result
1. 32.5
2. 69.2
3. 95.3
4. 72.2
5. 88.3

Hi, could you look up growth for each item in my list?
1. CC(=O)CC(=O)c1ccccc1.[Cu+2]
2. Cc1ccc(S(=O)(=O)c2nc(-c3ccccc3)oc2S(C)=O)cc1 (stereo unspecified)
3. CCC(C)C(N)C(=O)NC(CC(C)C)C(=O)N1CCCC1C(=O)NC(Cc1c[nH]c2ccccc12)C(=O)NC(CCCCN)C(=O)NC(Cc1c[nH]c2ccccc12)C(=O)N1CCCC1C(=O)NC(Cc1c[nH]c2ccccc12)C(=O)NC(Cc1c[nH]c2ccccc12)C(=O)N1CCCC1C(=O)NC(Cc1c[nH]c2ccccc12)C(=O)NC(CCCNC(=N)N)C(=O)NC(CCCNC(=N)N)C(N)=O (stereo unspecified)

## Result
1: 107; 2: -64.5; 3: 102

----------
# Test system: SK-MEL-28 melanoma
# PROCEDURE_TEXT: NCI-60 one-dose screen, 48 h (100 = growth as untreated, 0 = no growth, -100 = all killed)
# CONDITION_NOTES: 10 µM unless noted
About 83,000 compounds went through this panel and 20% of them were active in at least one assay; those are over-represented in the sample as a whole.
Short version: growth at least 80% is t, less is f.

>>> print(df.to_string())
                                   compound  cat
0  CCN1C(=O)N(CC)C2C1NN=c1s/c(=C\c3ccccc3)c(=O)n12 (stereo not given)    f
1  Nc1ncnc2c1N=C(c1ccc([N+](=O)[O-])cc1)CC(c1ccc3c(c1)OCO3)N2 (stereo not given)    t
2  C/C(=N\NC(=O)c1ccc(C(C)(C)C)cc1)c1ccc(O)cc1O    f

## Task For this compound, is measured growth 80% or higher? O=C(/C=C/c1cccc([N+](=O)[O-])c1)c1ccc(Nc2nc(Nc3ccc(F)cc3)nc(Nc3ccc(Cl)cc3)n2)cc1
## Result t

----------
What growth was measured for each of the following?
# System: EKVX NSCLC
# PROCEDURE_TEXT: NCI-60 one-dose screen, 48 h (100 = growth as untreated, 0 = no growth, -100 = all killed)
# CONDITION_NOTES: 10 µM unless noted
The panel holds about 83,000 compounds, 20% with a hit somewhere; the sample as a whole holds those more often.
Answers are plain numbers, in %.

Consider the worked cases shown below.
                                   molecule  measured_result
0       Oc1ccc(Cc2ccc(O)c3ncccc23)c2cccnc12             8.21
1  COCCn1cc(-c2nc(-c3cc4cccnc4n3C)cs2)c2cc(OC)ccc21             24.8
2  Clc1ccc2c(NCCCn3cnc4c(N5CCCC5)nc(Cl)nc43)ccnc2c1             96.4
3  CN1CCN(Cc2ccc(NC(=O)c3cncc(C#Cc4cnc(N)c5ccc(C#N)cc45)c3)cc2C(F)(F)F)CC1             43.4

Each of the following entries comes with a recorded value; kindly state growth for each.
1. Cc1ccc(Nc2nc(N)nc(N)c2N=O)cc1Cl
2. COc1ccc(N2C(=O)/C(=C/C(Cl)=C/c3ccc([N+](=O)[O-])cc3)SC2=S)cc1

## Result
81.5
-3.04

----------
# Test system: SNB-19 CNS
# PROCEDURE_TEXT: NCI-60 one-dose screen, 48 h (100 = growth as untreated, 0 = no growth, -100 = all killed)
# CONDITION_NOTES: 10 µM unless noted
This is part of a sample that, as a whole, favours compounds with a hit. Of some 83,000 tested, about 20% had one in any assay.
ASSAY_METRIC: growth (%)
Give bare numbers, in %.

Some entries whose results are on file:
>>> df
                                   molecule  target_or_test_system  measured_result
0  CNC(=O)c1cc(Oc2ccc3nc(NC(=O)c4cc(C(F)(F)F)cc(C(F)(F)F)c4)sc3c2)ccn1             SNB-19 CNS             15.5
1       C=CCNc1nc(O)c(/C=C2\C=Nc3ncccc32)s1             SNB-19 CNS               11
2  O=C(/C=C/C12c3ccccc3C(c3ccccc31)C1C(=O)NC(=O)C12)c1cccs1 (stereo not given)             SNB-19 CNS             39.2

Give one value of growth per listed molecule.
1. CCOc1ccc(-c2cc(C3(S(=O)(=O)c4ccc(C)cc4)CC=CC3)on2)cc1
2. Cc1nc2ccccc2c(/C=C/c2ccc(Br)cc2)c1C(=O)/C=C/c1ccccc1

## Result
[95.4, -11.6]

Below are 3 molecules. Give each one its growth.
1. COc1ccc(-c2cn(Cc3ccc4c(Br)cc(Br)c(O)c4n3)nn2)cc1
2. Nc1ccc(Cl)c2c(=O)c3ccccc3[nH]c12
3. O=c1ccc2c(ccc3ncccc32)o1

## Result
1: 96.9; 2: 88.5; 3: 118

For each of the molecules below, note its growth.
1. COc1ccc(NC(=O)c2sc3nc(C)c(C(=O)c4ccccc4)cc3c2N)cc1
2. N#CC1=C(N)Oc2c(ccc3cccnc23)C1c1ccccc1 (stereo not given)

## Result
90.8
52.7

----------
# Test system: TK-10 renal
# PROCEDURE_TEXT: NCI-60 one-dose screen, 48 h (100 = growth as untreated, 0 = no growth, -100 = all killed)
# CONDITION_NOTES: 10 µM unless noted
This is part of a sample that, as a whole, favours compounds with a hit. Of some 83,000 tested, about 20% had one in any assay. Activity calls are given as the source filed them. How the source made its calls: active means growth percent below 10; inactive means the rest.
Give measured growth for each item. Keep answers brief.

COMPOUND	growth
C=C(CNCCO)[C@@H]1CC[C@]2(CO)CC[C@]3(C)[C@H](CC[C@@H]4[C@@]5(C)CCC(NCCO)C(C)(C)[C@@H]5CC[C@]43C)[C@@H]12 (some centres undefined)	92.7% (inactive)
Nc1ncc(-c2ccc3ncnc(N4CCc5cc(F)c(Cl)cc54)c3c2)cc1C(F)(F)F	9.32% (active)
O=C(OCC(O)C(=O)NC12CC3CC(CC(C3)C1)C2)c1cccc(Br)c1 (centres undefined)	109% (inactive)
COCCNC(=O)Cc1cc(-c2ccc(Cl)cc2)n(-c2ccccc2)c1C	95.3% (inactive)
CC1OC(C(=O)N2CCN(CCO)CC2)CC1COC1CCCCC1 (centres undefined)	129% [50 µM] (inactive)

Give growth for each listed item.
1. Oc1ccc(C2OCCO2)c2cccnc12
2. CC(C)=CC(=O)C1C(=O)c2ccccc2C1=O
3. COc1ccc(C(c2cc(OC)c(OC)c(OC)c2)n2cncn2)cc1O (centres undefined)
4. C=C1CC[C@@H]2[C@](C)(COC(C)=O)[C@H](OC(C)=O)CC[C@@]2(C)[C@@H]1CC(Nc1ccc(S(=O)(=O)Nc2nccc(C)n2)cc1)C1=CCOC1=O (some centres undefined)

## Result
1. 95.5% (inactive)
2. 108% (inactive)
3. 61.3% (inactive)
4. 83% (inactive)
